# Tested on: Borrelia spielmanii
# experiment: Antimicrobial activity against Borrelia spielmanii isolate PC-Eq17 after 72 hrs by colorimetric assay
# Assay type: functional
# condition-context: Borreliella spielmanii, isolate PC-Eq17, 72 h
Listed here are compounds together with their documented MBC.

Example compounds with recorded MBC:
>  <cpd-smiles>
CO/N=C(\C(=O)N[C@@H]1C(=O)N2C(C(=O)O)=C(COC(N)=O)CS[C@H]12)c1ccco1

>  <value-observed>
> 8 µg/mL

$$$$
>  <cpd-smiles>
CC[C@H]1OC(=O)[C@H](C)[C@@H](O[C@H]2C[C@@](C)(OC)[C@@H](O)[C@H](C)O2)[C@H](C)[C@@H](O[C@@H]2O[C@H](C)C[C@H](N(C)C)[C@H]2O)[C@](C)(OC)C[C@@H](C)C(=O)[C@H](C)[C@@H](O)[C@]1(C)O

>  <value-observed>
1 µg/mL

$$$$

// MBC value for CC1(C)S[C@@H]2[C@H](NC(=O)[C@H](N)c3ccc(O)cc3)C(=O)N2[C@H]1C(=O)O : > 16 µg/mL
